Origin of the recorded values: patent US20220282217A1

target: HLA class I molecule A24.02; experiment: competition with radiolabeled reference peptide on purified MHC I; conditions: remark: other sources report otherwise
pIC50: −log10 of the molar value.

{"BINDER": "SQIMSLWGL", "pIC50": 5.07}
{"BINDER": "LSLMPAHWSI", "pIC50": 4.91}
{"BINDER": "SLMPAHWSI", "pIC50": 6.20}
